Source listed as PubChem BioAssay (NCI).

Quick reference for GI50 among some molecules
- Test system: SF-268 CNS
- Experiment: NCI tumour cell line growth inhibition, 48 h

As a guide, the following entries are already answered.
Molecule | GI50
O=C(/C=C/c1cccc2ccccc12)Nc1ncc(Cc2ccccc2)s1 | 2.61 µM
CC(=O)[C-](C(C)=O)c1ccccc1.CC(=O)[C-](C(C)=O)c1ccccc1.CC(=O)[C-](C(C)=O)c1ccccc1.[Cl-].[Zr+4] | 61.7 µM
COc1cc(/C=N/NC(=O)c2ccccc2Nc2cccc(C(F)(F)F)c2)cc(OC)c1OC | 2.05 µM

Query: Please give the documented GI50 of Nc1nc(N)c2c(n1)NC(c1sc(Cl)nc1Cl)CC(c1ccc3c(c1)OCO3)=N2 (stereo not given)
Result: 9.84 µM

Query: Please give the documented GI50 of COc1cccc(NC2=C(Cl)C(=O)N(Cc3ccc(Cl)cc3)C2=O)c1
Result: 3.02 µM
